- Tested on: CCRF-CEM
- assayProtocol: NCI tumour cell line growth inhibition, 48 h
Calls of active or inactive are those of the source. Cut-off read from the data, not from the text of the source: active = GI50 up to about 1.1 µM and inactive = higher.
Outcomes you can answer with include only these: active, inactive

Solved cases (4 shown):
compound	cat
O=C(O)CCN(CCCN(CCC(=O)O)CCC(=O)O)CCC(=O)O	inactive
COC(=O)C(C(=O)OC)C1CC(=O)c2c(Br)sc(Br)c21 (centres undefined)	inactive
Cc1csc(NCc2ccc(Cl)cc2)n1	inactive
Cc1nc2ccncc2[nH]1	inactive

INPUT: Look up the recorded call for `Cc1ccc(-c2nc3n(c2/C=N\N=C(N)N)CCS3)cc1` in this test.
OUTPUT: inactive

INPUT: Short answer needed: outcome of this test for CC1(C)C2CCC(=O)C1CC2 (centres undefined) ?
OUTPUT: inactive

INPUT: Outcome? `COC(=O)[C@@H]1O[C@]12[C@@H](CO[Si](C)(C)C(C)(C)C)O[C@@H](n1cc(C)c(=O)[nH]c1=O)[C@@H]2O[Si](C)(C)C(C)(C)C`
OUTPUT: inactive

* * *

- System: DMS-273
- assayProtocol: NCI tumour cell line growth inhibition, 48 h
Activity calls are given as the source filed them. No stated cut-off is given here; in the data, active = GI50 up to about 1.1 µM and inactive = higher.
Hi there, use one of these labels in your reply, thanks! T = active, F = inactive

compound	target	cat
O=C(NNC(=O)c1cc(/C=C/c2cccc([N+](=O)[O-])c2)nc(S)n1)Nc1ccc(Cl)cc1	DMS-273	F
O=C(NC(=O)c1ccccc1[N+](=O)[O-])Nc1ccc(Oc2ncc(Br)cn2)c(Cl)c1	DMS-273	T
C=C=C[P+](c1ccccc1)(c1ccccc1)c1ccccc1	DMS-273	F
COC(=O)C1=CC2C(=O)OC1C1C(=O)NC(=O)C21 (configuration not stated)	DMS-273	F
O=C1OC(CC(=O)c2ccc(Cl)cc2)C(Cl)=C1Cl (configuration not stated)	DMS-273	F
Cn1cnc([N+](=O)[O-])c1Sc1nnc(-c2cccnc2)n1C	DMS-273	F

INPUT: Which outcome did this test record for the compound `Cc1cccc(C(C)C)c1N1C(=O)C(=O)C(c2nc3ccccc3o2)C(=O)C1=O` ?
OUTPUT: F

INPUT: Outcome logged for Cc1cc2c(c(C#N)c1C)NC(=O)C(CC(=O)O)C2=O (configuration not stated) in this assay:
OUTPUT: F

INPUT: Recorded test call requested for CCCCCCCCC(O)c1ccc(/C=C\C(O)CCCC(=O)O)s1 (configuration not stated)
OUTPUT: F

INPUT: Test call for this compound, please: CN1c2ccccc2N(C)C2C1N(C)c1ccccc1N2C (configuration not stated)
OUTPUT: F

* * *

- Tested on: M19-MEL
- assayProtocol: NCI tumour cell line growth inhibition, 48 h
Active and inactive are the calls of the source. Rule as the data show it: active = GI50 up to about 1.1 µM and inactive = higher.
measurementType: GI50

INPUT: Give reported GI50 value for CC(C)(C)N1C(C(=O)c2ccccc2)C1c1ccccc1 (stereo unspecified)
OUTPUT: > 100 µM (inactive)

INPUT: Return reported GI50. Input compound: COC(=O)N/N=C(/CC1(O)C(=O)Nc2ccc([N+](=O)[O-])cc21)c1ccccc1 (stereo unspecified)
OUTPUT: 66.5 µM (inactive)

INPUT: Answer with reported GI50 of `C=C=C[P+](c1ccccc1)(c1ccccc1)c1ccccc1`
OUTPUT: 14.5 µM (inactive)

* * *

- Test system: A549
- assayProtocol: NCI tumour cell line growth inhibition, 48 h
The source made the active and inactive calls. Rule as the data show it: active = GI50 up to about 1.1 µM and inactive = higher.
measurementType: GI50

Here's what some known entries look like.
compound	measurementType	recordedResult
COc1cc(-c2cc(O)c(-c3ccc4ccccc4n3)c(O)n2)cc(OC)c1OC	GI50	53.7 µM (inactive)
COC(=O)/C=C1\C(=O)N(C(C)=O)c2ccc(Br)cc21	GI50	17.5 µM (inactive)
Cc1nc(C(N)=S)sc1C(=O)CC(=O)C(=O)Nc1ccccc1[N+](=O)[O-]	GI50	> 100 µM (inactive)

INPUT: // Input: `CN(C)c1ccc(C(=C2C=CC(=[N+](C)C)C=C2)c2c(O)c(S(=O)(=O)[O-])cc3cc(S(=O)(=O)O)ccc23)cc1` . Output its GI50 only.
OUTPUT: > 100 µM (inactive)

INPUT: Could you please provide reported GI50 for `O=C1Oc2ccccc2C(=O)/C1=C\Nc1nc(-c2ccccc2)cs1` ? Thanks!
OUTPUT: 31 µM (inactive)

INPUT: Quote GI50 reported for CC12CC(c3ccccc3O1)C(C(=O)Nc1cccc(F)c1)C(=O)N2 (stereo not given) please.
OUTPUT: 52.1 µM (inactive)

INPUT: Annotate the compound `CN(CCNC(=O)c1cn(C)c2c1ccc1ccccc12)CCNC(=O)c1cn(C)c2c1ccc1ccccc12` with its measured GI50.
OUTPUT: 3.59 µM (inactive)

INPUT: Identify GI50 associated with the compound `CN/N=C(\C)c1c(O)cc(C)oc1=O`
OUTPUT: > 100 µM (inactive)

INPUT: # return recorded GI50 for input `CCCC(=O)C1=C(O)C(Cc2c(O)c(C)c(O)c(C(=O)CCC)c2O)=C(O)C(C)(C)C1=O`
OUTPUT: 25.2 µM (inactive)

INPUT: Retrieve GI50 measured for `Cc1c2cnccc2c(C)c2c1c1ccccc1n2CCOC(=O)c1ccccc1` and print it.
OUTPUT: 10.8 µM (inactive)

* * *

- System: SN12C
- assayProtocol: NCI tumour cell line growth inhibition, 48 h
Calls of active or inactive are those of the source. Cut-off read from the data, not from the text of the source: active = GI50 up to about 1.1 µM and inactive = higher.
measurementType: GI50

compound	measurementType	recordedResult
CC(C)=CC[C@H]1C[C@]2(CC=C(C)C)C(=O)[C@@](CC=C(C)C)(C(=O)C(C(=O)c3ccccc3)=C2O)C1(C)C [6-EPI-CLUSIANONE]	GI50	3.49 µM (inactive)
O=C(NNC(=O)c1cc(/C=C/c2cccc([N+](=O)[O-])c2)nc(S)n1)Nc1ccc(Cl)cc1	GI50	> 100 µM (inactive)
N#Cc1cccc(N2C(=O)c3ccc(C(=O)c4ccc5c(c4)C(=O)N(c4cccc(C#N)c4)C5=O)cc3C2=O)c1	GI50	> 100 µM (inactive)
COc1ccccc1Cc1nc(-c2ccccc2)nn(C2OC(COC(C)=O)C(OC(C)=O)C(OC(C)=O)C2OC(C)=O)c1=S (stereo not drawn)	GI50	9.35 µM (inactive)
O=C1CC(O)(c2ccccc2)C(c2ccccc2)=C1c1ccccc1 (stereo not drawn)	GI50	38.6 µM (inactive)

INPUT: Return value of GI50 for input CCOC(=O)[C@H]1Nc2ccccc2C2c3ccccc3CC21 (stereo partly drawn) , no commentary.
OUTPUT: 29.4 µM (inactive)

INPUT: Respond only with GI50 recorded for `O=C1/C(=N\NC(=S)Nc2ccc(Cl)cc2)c2cc([N+](=O)[O-])ccc2N1CN1CCOCC1`
OUTPUT: 4.12 µM (inactive)

INPUT: Return GI50 for the following compound: `COc1ccc(/C=C(/c2ccc(OC)cc2)c2c(Cl)cc(Cl)c(/C(=C\c3ccc(OC)cc3)c3ccc(OC)cc3)c2/N=N/c2ccccc2)cc1`
OUTPUT: > 100 µM (inactive)

* * *

- System: OVCAR-4
- assayProtocol: NCI tumour cell line growth inhibition, 48 h
The source made the active and inactive calls. Rule as the data show it: active = GI50 up to about 1.1 µM and inactive = higher.
measurementType: GI50

Here are 2 compounds together with their reported answers.
compound	recordedResult
CC12CC[C@H](O)C(C)(C)[C@H]1CC[C@](C)(O)C2COc1ccc2ccc(=O)oc2c1 (stereo partly drawn)	> 100 µM (inactive)
CSC(=O)c1sc(SC)[n+](-c2ccccc2)c1O	12.1 µM (inactive)

# input for lookup
INPUT: Give the reported value of GI50 for this record: COC(=O)C(Cc1nc2ccc(Cl)cc2nc1O)/C(=N/NC(N)=O)C(=O)Nc1ccc(Cl)cc1 (stereo not drawn)
OUTPUT: > 100 µM (inactive)

* * *

- Tested on: SNB-78
- assayProtocol: NCI tumour cell line growth inhibition, 48 h
Active and inactive are the calls of the source. Rule as the data show it: active = GI50 up to about 1.1 µM and inactive = higher.
measurementType: GI50

Sample answers from the record:
compound	GI50
CN(C(=N)c1ccccc1)c1ccccc1	> 100 µM (inactive)
CCCCCCCCC(O)c1ccc(/C=C\C(O)CCCC(=O)O)s1 (centres undefined)	> 100 µM (inactive)
Nc1nnc(N)n1N	> 100 µM (inactive)

INPUT: Provide measured GI50 on SNB-78 for C/C=C(\NC(=O)C(CCCCN)NC(=O)C(C)NC(=O)C1CSC(C)C(NC(=O)C2CSCC(NC(=O)C(C)NC(=O)C(N)C(C)CC)C(=O)NC(CCCCN)C(=O)NC(Cc3ccccc3)C(=O)NC(CC(C)C)C(=O)N2)C(=O)N2CCCC2C(=O)NCC(=O)N1)C(=O)NCC(=O)NC1CSCC2NC(=O)C(Cc3ccc(O)cc3)NC(=O)C(CSC=CNC2=O)NC(=O)C(CC(N)=O)NC(=O)C(Cc2ccccc2)NC1=O (centres undefined) please.
OUTPUT: > 100 µM (inactive)

INPUT: Give GI50; test system SNB-78; compound CC1C[C@@H]2C(=O)NC(=O)[C@@H]2c2c1c1ccccc1n2C (some centres undefined)
OUTPUT: > 100 µM (inactive)

INPUT: State, for SNB-78, measured GI50 of the compound listed here: `CCc1cccc(C)c1N1C(=O)C(=O)C(c2nc3ccccc3o2)C(=O)C1=O`
OUTPUT: > 100 µM (inactive)

INPUT: Retrieve GI50 on SNB-78; query `CC(C)(CN1CCCCC1)C(=O)/C=C/c1ccc(Cl)c(Cl)c1`
OUTPUT: 1.51 µM (inactive)

INPUT: Find the measured GI50 of `COc1cccc(Cc2c3cc(OC)ccc3cc[n+]2C)c1` with SNB-78 as test system.
OUTPUT: > 100 µM (inactive)
